// data source = ChEMBL document CHEMBL3988442

- Organism: Homo sapiens
- test_method_notes: To identify inhibition of the IFN signalling (Jak-Stat) pathway via expression of an eGFP reporter gene under the control of an IFN-stimulated response element (ISRE) containing MxA promoter.
- Type: functional
- Parameters: scale not given: direction of the effect not stated beside the values
- cond: 30 µM
measurement_label: Percent Effect
State the value with its unit after it.

CN(C(=O)c1cccc(C(=O)NCC(F)(F)F)c1)c1ccccc1 :: 7.29%
CC(C)c1ccc(OCCC(=O)N2CCC(CC(N)=O)CC2)cc1 :: 5.75%
Cc1cccnc1NC(=O)NC(C)Cn1cccn1 (stereo unspecified) :: 23.3%

(Q) Using the record for CC(NC(=O)N1CCC(n2cncn2)CC1)c1ccc(F)cc1F (stereo unspecified) , report its Percent Effect.
(A) 8.31%

(Q) Using the record for CCOCCN1CCN(Cc2nc(C3CC3)no2)CC1CC (stereo unspecified) , report its Percent Effect.
(A) 2.26%

(Q) Using the record for "CNC(=O)[C@H]1CCS(=O)(=O)[C@@H]2CN(Cc3ccc(OC)cc3)C[C@H]12" , report its Percent Effect.
(A) 2.35%
